Test system: NCI-H522 lung
assay_info: NCI-60 one-dose screen, 48 h (100 = growth as untreated, 0 = no growth, -100 = all killed)
run_conditions: 10 µM unless noted
About 83,000 compounds went through this panel and 20% of them were active in at least one assay; those are over-represented in the sample as a whole.
Fulfilled if growth is below 50%. Not fulfilled if not; exact matches included in Not fulfilled.

Task item: Is growth strictly under 50% for the entry "Cc1ccc2nc(NC(=O)CSc3nc(-c4ccccc4)c(C#N)c(=O)n3Cc3ccccc3)sc2c1" ?
Reply: Fulfilled

Task item: Is growth strictly under 50% for the entry "CCCCc1ccc(Nc2ccc(Nc3ccc(CCCC)cc3S(=O)(=O)O)c3c2C(=O)c2ccccc2C3=O)c(S(=O)(=O)O)c1" ?
Reply: Not fulfilled

Task item: Is growth strictly under 50% for the entry "COC(=O)[C@]12CC[C@@H](C)[C@H](C)[C@@H]1C1=CC[C@@H]3[C@@]4(C)C(C=O)=C[C@@](C)(COC(=O)/C=C/c5ccccc5)[C@@H]4[C@H](O)C[C@@]3(C)[C@]1(C)CC2" ?
Reply: Fulfilled

Task item: Is growth strictly under 50% for the entry "COc1ccc(-c2nc3ccc4[nH]ncc4c3c3c2CCCC3)cc1B(O)O" ?
Reply: Fulfilled

Task item: Is growth strictly under 50% for the entry "Cc1ccc(/C=C/c2c(C(=O)/C=C/c3ccc(Cl)cc3)c(C)nc3ccccc23)cc1" ?
Reply: Fulfilled

Task item: Is growth strictly under 50% for the entry "Cc1cc(Cl)nc(NCc2cc(Nc3ccnc4cc(Cl)ccc34)ccc2F)n1" ?
Reply: Fulfilled

Task item: Is growth strictly under 50% for the entry "CCN(CC)CCCNc1ccc(Nc2ccc(OC)cc2)cc1" ?
Reply: Not fulfilled

Task item: Is growth strictly under 50% for the entry COc1cc(C2CC(c3cc(OC)c(OCCCOc4ccc(-n5c(/C=C/c6ccccc6)nc6ccccc6c5=O)cc4)c(OC)c3)=NO2)cc(OC)c1OC (stereo not drawn) ?
Reply: Not fulfilled

----------
Tested on: MDA-MB-435 melanoma
assay_info: NCI-60 one-dose screen, 48 h (100 = growth as untreated, 0 = no growth, -100 = all killed)
run_conditions: 10 µM unless noted
Description: Growth inhibition of the MDA-MB-435 human Melanoma tumor cell line is measured as a screen for anti-cancer activity. Cells are grown in 96 well plates and exposed to the test compound for 48 hours. Compounds are tested at a single concentration, which is 10^-5 M for most compounds. The reported endpoint is percent growth (GI% or GIPRCNT), where numbers from 0 - 100% represent growth inhibition, and numbers from -100% - 0 represent cell death. […]
About 83,000 compounds went through this panel and 20% of them were active in at least one assay; those are over-represented in the sample as a whole.
measured_property: growth (%)
API: value field is a number in %; no unit string.

The reported value for "CCCCn1c(=O)c2c(nc3n2CCCN3CCc2ccc(OCC(=O)NCCN(CC)CC)cc2)n(CCCC)c1=O" in terms of growth is 63.6

The reported value for "C=C1C(=O)O[C@H]2[C@H]1CC/C(COC(=O)C(=O)c1cn(C)c3ccc(OC)cc13)=C\CC[C@@]1(C)O[C@@H]21" in terms of growth is -79.2

The reported value for "O=C(COc1ccc(/C=C2\Oc3ccccc3C2=O)cc1)c1ccc(Cl)cc1" in terms of growth is 90.7

The reported value for CC1=C(SCCC(=O)OC(C[Se]C2=C(C)C(=O)c3ccccc3C2=O)C(=O)NCCCCCC(=O)OCc2ccccc2)C(=O)c2ccccc2C1=O (configuration not stated) in terms of growth is 25.1

The reported value for "Cc1cccc(NC(=O)CSc2nc3ccccc3[nH]2)c1" in terms of growth is 103

The reported value for "COc1ccc(/C=C/c2c(C(=O)/C=C/c3cccs3)c(C)nc3ccccc23)cc1" in terms of growth is 68.5

The reported value for "CC1(C)CC[C@]2(C(=O)N3CCOCC3)CC[C@]3(C)C(=CC[C@@H]4[C@@]5(C)CC[C@H](OC(=O)c6cccnc6)C(C)(C)[C@@H]5CC[C@]43C)[C@@H]2C1" in terms of growth is 70.2

The reported value for "CC(C)(C)c1ccc(/C=C/C(=O)Nc2ccc(O)cc2)cc1" in terms of growth is 50.9

The reported value for "O=C(COc1ccc(/C=C2\Oc3ccccc3C2=O)cc1)Nc1nc2c(s1)CCCC2" in terms of growth is 24.4

The reported value for "COc1cccc(-c2nc3sccn3c2-c2ccnc(NCCNS(=O)(=O)c3cccc(Cl)c3)c2)c1" in terms of growth is 59.7

The reported value for "O=c1ccn2nc3ccccc3c2[nH]1" in terms of growth is 118

The reported value for "C=CC(=O)Nc1cccc(Oc2nccc(Nc3nnc(C4CC4)s3)n2)c1" in terms of growth is 99.5

The reported value for "COc1cc(/C=C2\C(=O)ON=C2C)cc(OC)c1OC" in terms of growth is 102

The reported value for "COc1ccc2c(c1)CCCN2c1c2ccccc2nc2ccccc12" in terms of growth is -17.9

The reported value for "O=C(NCCCNc1cc(-c2cn(-c3ccccc3)nc2-c2cccc(O)c2)ccn1)c1ccccc1" in terms of growth is -10.5

The reported value for "N=c1sc(Cc2ccc(Cl)cc2)cn1CC(=O)c1ccc(F)cc1" in terms of growth is 37

The reported value for "O=C1/C(=C/c2ccc(Br)cc2)C=C(c2ccccc2)N1CCc1ccccc1" in terms of growth is 63.2

The reported value for COc1ccc(C2C(c3nn[nH]n3)=C(N)Oc3c2ccc2ccccc32)cc1 (configuration not stated) in terms of growth is -26.6

The reported value for "O=C(COc1ccc(/C=C2\Oc3ccccc3C2=O)cc1)Nc1nc2ccccc2s1" in terms of growth is 65

The reported value for "c1ccc(-c2nc([P+](c3ccccc3)(c3ccccc3)c3ccccc3)c(N3CCOCC3)o2)cc1" in terms of growth is -1.04

The reported value for "O=C1c2cccc(NCCN=Cc3cc([N+](=O)[O-])ccc3O)c2C(=O)c2c(NCCN=Cc3cc([N+](=O)[O-])ccc3O)cccc21" in terms of growth is 99.3

The reported value for N#CC1=C(/N=C/c2ccccc2)Oc2c(ccc3ccccc23)C1c1ccccc1 (configuration not stated) in terms of growth is -42.1

The reported value for "COC(=O)[C@]12CC[C@@H](C)[C@H](C)[C@@H]1C1=CC[C@@H]3[C@@]4(C)C(C=O)=C[C@@](C)(COC(=O)c5ccco5)C4=CC[C@@]3(C)[C@]1(C)CC2" in terms of growth is -22.3

The reported value for "Cc1ccc(N(C(=O)CCc2c[nH]c3ccccc23)[C@H](C(=O)Nc2ccc(Cl)cc2)c2cccc([N+](=O)[O-])c2)cc1" in terms of growth is 81.3

The reported value for "O=c1[nH]nc(-c2ccccc2)c2c(-c3ccccc3)onc12" in terms of growth is 16.7

The reported value for CC(=O)C(C)Cc1cc2c(cc1C)C(C)(C)CCC2(C)C (configuration not stated) in terms of growth is 104

The reported value for "O=C(/C=C/c1c(Cl)nc2sccn12)c1ccc(F)c(F)c1" in terms of growth is 82.6

The reported value for "Cc1ccc2nc(NC(=O)CSc3nc(-c4ccccc4)c(C#N)c(=O)n3Cc3ccccc3)sc2c1" in terms of growth is 45.7

The reported value for CC1SC(c2ccc(OCc3ccccc3)cc2)N(NC(=O)C(O)(c2ccccc2)c2ccccc2)C1=O (configuration not stated) in terms of growth is 57.7

The reported value for OC(c1cccc(-n2ccc(C(F)(F)F)n2)c1)c1cnccc1NC1CCCCCC1 (configuration not stated) in terms of growth is -77.4

The reported value for "NC(N)=NN=C(c1ccccc1)c1ccccc1" in terms of growth is -23.8

The reported value for "CCN1CCN(c2cc(C)nc(NCc3cc(Nc4ccnc5cc(Cl)ccc45)ccc3F)n2)CC1" in terms of growth is 50.7

The reported value for "COc1ccccc1N1C(=O)/C(=C/C2=Cc3ccccc3OC2)SC1=S" in terms of growth is 97.8

The reported value for "COc1ccc(NC(=O)CSc2nnc(-c3cc(-c4ccc(S(N)(=O)=O)cc4)nc4ccccc34)n2-c2ccccc2)cc1" in terms of growth is 92.2

The reported value for "CS(=O)(=O)c1ccc(Nc2nc(N[C@H]3CCCC[C@H]3N)nc3cc[nH]c(=O)c23)cc1" in terms of growth is -4.07

The reported value for COc1ccc(C2CC(c3cccc(OC)c3)=NN2C(=O)c2cc(OC)c(OC)c(OC)c2)cc1 (configuration not stated) in terms of growth is -58.8

The reported value for "CCN(CCNc1ccc(C)c2sc3ccccc3c(=O)c12)CC(C)(C)O" in terms of growth is 79
